system.under.test: PAR4 (Homo sapiens (Human), UniProt Q96RI0)
Sequence (Q96RI0 18-385): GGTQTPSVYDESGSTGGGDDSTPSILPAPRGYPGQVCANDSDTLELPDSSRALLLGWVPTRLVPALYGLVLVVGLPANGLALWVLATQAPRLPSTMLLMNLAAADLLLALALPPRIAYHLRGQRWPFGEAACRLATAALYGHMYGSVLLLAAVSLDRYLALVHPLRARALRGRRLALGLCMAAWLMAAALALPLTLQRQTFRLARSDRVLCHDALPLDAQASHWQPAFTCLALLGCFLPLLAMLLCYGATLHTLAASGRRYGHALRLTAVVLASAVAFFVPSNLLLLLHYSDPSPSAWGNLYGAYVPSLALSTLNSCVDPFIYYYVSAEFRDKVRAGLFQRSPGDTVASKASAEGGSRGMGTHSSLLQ
test.description: FLIPR assay in PAR4-expressing HEK293 cells (PAR4 antagonist activity, calcium mobilization)
Assay type: cell-based
recorded.conditions: H-Ala-Phe(4-F)-Pro-Gly-Trp-Leu-Val-Lys-Asn-Gly-NH2-induced calcium mobilization
The entries below are paired with their reported EC50.
Give the value in nM but do not write nM after it.

Sample answers from the record:
> print(dat)
                                smiles.code  numeric.result
1  COc1cc(OCc2csc(Nc3cc(C)ccc3F)n2)c2cc(-c3cn4nc(C)ccc4n3)oc2c1              16
2  COc1cc(OCc2csc(C3=CCOc4ccccc43)n2)c2cc(-c3cn4nc(OC)sc4n3)oc2c1             1.3

IN: Notebook entry, PAR4 (Homo sapiens (Human), UniProt Q96RI0) assay: EC50 of "CC(F)(F)c1nn2cc(-c3cc4c(OCc5csc(-c6ccccc6)n5)nccc4o3)nc2s1" = ?
OUT: 43

---

system.under.test: PAR4 (Homo sapiens (Human), UniProt Q96RI0)
test.description: FLIPR assay in PAR4-expressing HEK293 cells (PAR4 antagonist activity, calcium mobilization)
Format: cell-based
recorded.conditions: H-Ala-Phe(4-F)-Pro-Gly-Trp-Leu-Val-Lys-Asn-Gly-NH2-induced calcium mobilization
assay.endpoint: pEC50
For clarity, pEC50 is expressed as the negative log10 of concentration in mol/L.

> print(dat)
                                   compound                         system.under.test  numeric.result
1  COc1cc(OCc2csc(-c3ccc(C(=O)N4CCCCCC4)cc3)n2)c2cc(-c3cn4nc(OC)sc4n3)oc2c1  PAR4 (Homo sapiens (Human), UniProt Q96RI0)            9.07
2  COc1cc(OCc2csc(-c3ccc(CO)cc3)n2)c2cc(-c3cn4nc(OC)sc4n3)oc2c1  PAR4 (Homo sapiens (Human), UniProt Q96RI0)            9.64
3  CCC(O)(c1nc(COc2cc(OC)cc3oc(-c4cn5nc(OC)sc5n4)cc23)cs1)C(F)(F)F (stereo not drawn)  PAR4 (Homo sapiens (Human), UniProt Q96RI0)            9.09
4  COc1cc(OCc2csc(C(C)(O)C3CCCCC3)n2)c2cc(-c3cn4nc(OC)sc4n3)oc2c1 (stereo not drawn)  PAR4 (Homo sapiens (Human), UniProt Q96RI0)            9.51

IN: What value of measured pEC50 is listed for "COc1cc(OCc2csc(-c3cccc(C(F)(F)F)c3)n2)c2cc(-c3cn4nc(OC)sc4n3)oc2c1" ?
OUT: 8.96

IN: What do you get for "COc1cc(OCc2csc(-c3ccc(C(=O)N4CCC4)cc3)n2)c2cc(-c3cn4nc(OC)sc4n3)oc2c1" ?
OUT: 8.92

IN: What do you get for "COc1cc(OCc2nc(C3(F)CCOCC3)sc2C(F)(F)F)c2cc(-c3cn4nc(OC)sc4n3)oc2c1" ?
OUT: 8.72

IN: What do you get for "COc1cc(OCc2csc(N(C)CCO)n2)c2cc(-c3cn4nc(C)ccc4n3)oc2c1" ?
OUT: 7.82

IN: What do you get for COc1cc(OCc2csc(NCC3CCCO3)n2)c2cc(-c3cn4nc(C)ccc4n3)oc2c1 (stereo not drawn) ?
OUT: 8.11
